measurement_kind: melting point

Some compounds with known melting point results, for comparison:
{"columns": ["compound", "melting point"],
 "data": [
  ["N#Cc1cnc2c(NC(=O)c3c(Cl)cccc3Cl)cccc2c1CO", "249 to 250 °C"],
  ["COc1cccc2c1C(C)(C)c1ccccc1C2", "62 to 64 °C"],
  ["CC(=O)NC[C@H]1CN(c2ccc(-c3noc(C(N)=O)n3)c(F)c2)C(=O)O1", "218 to 220 °C"],
  ["COC(=O)c1cc(Cl)ccc1NC(=O)N(C)C", "114 °C"],
  ["Cc1cc(-c2cc(C(F)(F)F)n3ncc(C(=O)Nc4cccc(S(N)(=O)=O)c4)c3n2)ccc1C(F)(F)F", "245 °C"]
]}

Query block: For CCCCc1nc2c(C)nc(C)cc2n1-c1ccc(CCOC(=O)NS(=O)(=O)c2ccc(C)cc2)cc1 , write its melting point.
Result block: 162 °C
